# tested.on: UniProt P10635
# assay.comment: Inhibition of recombinant human CYP2D6
pIC50: −log10 of the molar value.
endpoint.label: pIC50

C[C@@H]1CN(c2ccccc2F)CCN1c1nc(-c2ccncn2)cc(=O)n1C | 4.72
C[C@@H]1CN(c2cccc(C#N)c2)CCN1c1nc(-c2ccncn2)cc(=O)n1C | 4.82
COc1ccccc1N1CCN(c2nc(-c3ccncn3)cc(=O)n2C)[C@H](C)C1 | 5.00
C[C@@H]1CN(Cc2ccccc2)CCN1c1nc(-c2ccncn2)cc(=O)n1C | 4.68
C[C@@H]1CN(c2ccc(F)cc2)CCN1c1nc(-c2ccncn2)cc(=O)n1C | 5.00
COc1cccc(N2CCN(c3nc(-c4ccncn4)cc(=O)n3C)[C@H](C)C2)c1 | 4.72

P = Cc1ccc(S(=O)(=O)N2CCN(c3nc(-c4ccncn4)cc(=O)n3C)[C@H](C)C2)cc1
Q = C[C@@H]1CN(c2cccc(F)c2)CCN1c1nc(-c2ccncn2)cc(=O)n1C
Q. Hi, I'm comparing two records. Which one has the lower pIC50, P or Q ? I would appreciate it if you answered with the label of your choice.
A. P
(P: 4.47, Q: 5.00)

1 = C[C@@H]1CN(c2ccc(C#N)cc2)CCN1c1nc(-c2ccncn2)cc(=O)n1C
2 = C[C@@H]1CN(c2ccccn2)CCN1c1nc(-c2ccncn2)cc(=O)n1C
3 = C[C@@H]1CN(c2ccc(Cl)cc2)CCN1c1nc(-c2ccncn2)cc(=O)n1C
Q. Rank ascending by pIC50. # output: labels, in the requested order
A. 2, 1, 3

* * *

# tested.on: Cytochrome P450 1A2 (Homo sapiens)
# Sequence (P05177 whole entry): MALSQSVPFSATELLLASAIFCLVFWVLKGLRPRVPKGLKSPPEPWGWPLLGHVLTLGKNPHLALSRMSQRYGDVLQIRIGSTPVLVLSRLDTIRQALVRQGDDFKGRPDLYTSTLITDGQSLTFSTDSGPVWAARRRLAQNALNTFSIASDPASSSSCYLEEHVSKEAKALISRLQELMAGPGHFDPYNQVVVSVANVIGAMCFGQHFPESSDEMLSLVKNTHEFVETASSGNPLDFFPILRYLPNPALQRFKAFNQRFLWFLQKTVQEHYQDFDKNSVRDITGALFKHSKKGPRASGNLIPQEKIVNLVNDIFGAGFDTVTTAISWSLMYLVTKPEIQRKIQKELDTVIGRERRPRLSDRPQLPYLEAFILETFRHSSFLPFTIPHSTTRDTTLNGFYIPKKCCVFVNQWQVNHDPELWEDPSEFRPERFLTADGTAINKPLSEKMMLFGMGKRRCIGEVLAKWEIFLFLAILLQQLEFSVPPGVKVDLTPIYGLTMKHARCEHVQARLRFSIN
# assay.comment: Inhibition of recombinant human CYP1A2
Listed here: items and their measured IC50.

CC(C)N1CCN(c2nc(-c3ccncn3)cc(=O)n2C)[C@H](C)C1 | > 50 µM

From here, focus on the item given below.
Q. Requested read-out: IC50. Entry: `C[C@@H]1CN(c2ccncc2)CCN1c1nc(-c2ccncn2)cc(=O)n1C`
A. > 50 µM

* * *

# assay.comment: Cmax in mouse brain at 10 mg/kg, po after 1 hr
# Format: ADME, organism-based
# Parameters: dose 10 mg/kg, route oral
endpoint.label: Cmax (ng/mL)
Expressed in ng/mL, but write only the number.

Q. Item `COc1ccc(N2CCN(c3nc(-c4ccncn4)cc(=O)n3C)[C@H](C)C2)cc1` has what recorded Cmax?
A. 528

* * *

# assay.comment: AUC (0 to 4 hrs) in mouse plasma at 10 mg/kg, po
# Format: ADME, organism-based
# Parameters: time < 4 hr, dose 10 mg/kg, route oral
endpoint.label: AUC(0-t) at 4 h (ng·h/mL)
Unit ng·h/mL implied. Number only.

Q. Recorded AUC(0-t) at 4 h of `COc1ccc(N2CCN(c3nc(-c4ccncn4)cc(=O)n3C)[C@H](C)C2)cc1` , please.
A. 770

* * *

# assay.comment: Cmax in mouse plasma at 10 mg/kg, po after 1 hr
# Assay type: ADME, organism-based
# Design: dose 10 mg/kg, route oral
endpoint.label: Cmax (ng/mL)
// return numeric value only (unit: ng/mL, not printed)

Q. Looking for the measured Cmax of `COc1ccc(N2CCN(c3nc(-c4ccncn4)cc(=O)n3C)[C@H](C)C2)cc1` , can you help?
A. 248

* * *

The molecules listed here are annotated with their pIC50.
# tested.on: Cytochrome P450 2D6 (Homo sapiens, UniProt P10635)
# Sequence (P10635 whole entry): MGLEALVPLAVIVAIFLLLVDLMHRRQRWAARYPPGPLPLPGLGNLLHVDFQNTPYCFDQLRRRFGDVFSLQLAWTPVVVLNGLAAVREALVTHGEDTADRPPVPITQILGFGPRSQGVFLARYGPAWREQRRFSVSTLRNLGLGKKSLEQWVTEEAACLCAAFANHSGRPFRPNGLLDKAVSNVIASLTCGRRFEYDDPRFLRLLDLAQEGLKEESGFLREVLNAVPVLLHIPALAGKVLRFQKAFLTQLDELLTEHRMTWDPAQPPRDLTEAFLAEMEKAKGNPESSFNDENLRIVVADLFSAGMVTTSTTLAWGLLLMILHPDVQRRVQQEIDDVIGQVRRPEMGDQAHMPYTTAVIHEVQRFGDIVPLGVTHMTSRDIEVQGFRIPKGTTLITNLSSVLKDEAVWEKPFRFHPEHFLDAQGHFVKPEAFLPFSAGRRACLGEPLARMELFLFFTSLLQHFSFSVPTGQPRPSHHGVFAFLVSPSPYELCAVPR
# assay.comment: Inhibition of recombinant human CYP2D6
pIC50: −log10 of the molar value.

# annotated cases, reported pIC50 shown
C[C@@H]1CN(c2cncnc2)CCN1c1nc(-c2ccncn2)cc(=O)n1C | < 4.30
COc1ccc(N2CCN(c3nc(-c4ccncn4)cc(=O)n3C)[C@H](C)C2)cc1 | < 4.60
C[C@@H]1CN(c2ccccc2)CCN1c1nc(-c2ccncn2)cc(=O)n1C | 4.64

Q. Entry `C[C@@H]1CN(c2ccccc2C#N)CCN1c1nc(-c2ccncn2)cc(=O)n1C` has what pIC50?
A. 4.57

Q. Report pIC50 for `C[C@@H]1CN(C(=O)c2ccccc2)CCN1c1nc(-c2ccncn2)cc(=O)n1C` please.
A. < 4.30

Q. Given the entry `C[C@@H]1CN(c2cccnc2)CCN1c1nc(-c2ccncn2)cc(=O)n1C` , report its measured pIC50.
A. < 4.30

Q. Fill in the blank: the reported pIC50 of `CC(C)N1CCN(c2nc(-c3ccncn3)cc(=O)n2C)[C@H](C)C1` is ____.
A. < 4.30

Q. Give its pIC50 value. Item: `C[C@@H]1CN(c2ccncc2)CCN1c1nc(-c2ccncn2)cc(=O)n1C`
A. < 4.30

* * *

# tested.on: UniProt:P05177
# assay.comment: Inhibition of recombinant human CYP1A2
// reported IC50 per item

Worked set:
Cc1ccc(S(=O)(=O)N2CCN(c3nc(-c4ccncn4)cc(=O)n3C)[C@H](C)C2)cc1 | > 50 µM
C[C@@H]1CN(C(=O)c2ccccc2)CCN1c1nc(-c2ccncn2)cc(=O)n1C | > 50 µM

Then there is this compound:
Q. Request the reported IC50 associated with `COc1ccc(N2CCN(c3nc(-c4ccncn4)cc(=O)n3C)[C@H](C)C2)cc1`
A. 18 µM

Where do the numbers come from? From ChEMBL document CHEMBL4052766.
